Measured cell viability accompanies every entry in the list below.
# Test system: Calu-3
# Experiment Description: cell viability relative to DMSO; higher = less toxic
# Stated Conditions: 72 h; 100 nM
State the answer as a number, implicitly in %.

Worked examples follow.
Compound	Measurement Unit	cell viability
CN1CCN(c2ccc(Nc3ncc4cc(C#N)c(=O)n(C5CCCC5)c4n3)cc2)CC1	%	98.9
Cc1sc2c(c1C)C(c1ccc(Cl)cc1)=N[C@@H](CC(=O)Nc1ccc(O)cc1)c1nnc(C)n1-2 [OTX015]	%	108
N#Cc1cnc2cnc(NCc3cccnc3)cc2c1Nc1ccc(F)c(Cl)c1 [TC-S-7006]	%	96.9

Problem: I would be grateful if you could share the reported cell viability for Nc1ncnc2c1ncn2C1CCCO1 (stereo not drawn) .
Solution: 94.1

Problem: I would be grateful if you could share the reported cell viability for C[C@H]1[C@H](C)CC[C@]2(C(=O)O)CC[C@]3(C)C(=CC[C@@H]4[C@@]5(C)C[C@@H](O)[C@H](O)[C@@](C)(CO)[C@@H]5CC[C@]43C)[C@H]12 [asiatic-acid] .
Solution: 106

Problem: I would be grateful if you could share the reported cell viability for O=S(=O)(O)Oc1ccc(C(c2ccc(OS(=O)(=O)O)cc2)c2ccccn2)cc1 [sodium-picosulfate] .
Solution: 82.2

Problem: I would be grateful if you could share the reported cell viability for Fc1ccc(-n2cc(CCCCN3CCC4(CC3)OCc3ccccc34)c3ccccc32)cc1 [siramesine] .
Solution: 88.2

Problem: I would be grateful if you could share the reported cell viability for CN1CCN(Cc2ccc(-c3cnc4[nH]cc(-c5ccc6[nH]ccc6c5)c4c3)cc2)CC1 [URMC-099] .
Solution: 95.3
